Task for the reader: assign each of the following compounds its reported Bliss excess.
Test system: DK-MG (Glioblastoma);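 note: after 72 h of two-drug dosing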
Experimental details: Bliss excess, mean over the matrix (fraction); higher = more synergy
# answer = number (no unit)

Enquiry: Please report the recorded Bliss excess for COc1cccc(OCCCN)c1-c1cc(Nc2cnc(C#N)cn2)n[nH]1 [Prexasertib] + O=C(c1cc(Cc2n[nH]c(=O)c3ccccc23)ccc1F)N1CCN(C(=O)C2CC2)CC1 [Olaparib] (first compound max 1 µM, 7x7, partner max 10 µM) .
Return: 0.0193

Enquiry: # lookup: Bliss excess of Cn1cnc2c(F)c(Nc3ccc(Br)cc3Cl)c(C(=O)NOCCO)cc21 [Selumetinib] + C=CCn1c(=O)c2cnc(Nc3ccc(N4CCN(C)CC4)cc3)nc2n1-c1cccc(C(C)(C)O)n1 [AZD1775] (first compound max 10 µM, partner max 1 µM)
Return: -0.0548

Enquiry: Entry Cc1cc2ncnn2cc1Nc1ncc2c(n1)n(C1CCOCC1)c(=O)n2C [AZD7648] + CN(C)CCCOc1ccc(-c2ccc3ncc4c(c3c2)n(C2CCOCC2)c(=O)n4C)cn1 [AZD0156] (first compound max 10 µM, 7x7, partner max 1 µM) : reported Bliss excess = ?
Return: 0.0157

Enquiry: What does the record list as Bliss excess for CN(CCO)CC[C@H](CSc1ccccc1)Nc1ccc(S(=O)(=O)NC(=O)c2ccc(N3CCC([C@@H](O)c4ccccc4-c4ccc(Cl)cc4)CC3)cc2)cc1S(=O)(=O)C(F)(F)F [AZD4320] + Cc1cc2ncnn2cc1Nc1ncc2c(n1)n(C1CCOCC1)c(=O)n2C [AZD7648] (first compound max 1 µM, 7x7, partner max 10 µM) ?
Return: -0.0591
